- tested system: ABL1 (Homo sapiens, UniProt P00519)
- Sequence (P00519 whole entry): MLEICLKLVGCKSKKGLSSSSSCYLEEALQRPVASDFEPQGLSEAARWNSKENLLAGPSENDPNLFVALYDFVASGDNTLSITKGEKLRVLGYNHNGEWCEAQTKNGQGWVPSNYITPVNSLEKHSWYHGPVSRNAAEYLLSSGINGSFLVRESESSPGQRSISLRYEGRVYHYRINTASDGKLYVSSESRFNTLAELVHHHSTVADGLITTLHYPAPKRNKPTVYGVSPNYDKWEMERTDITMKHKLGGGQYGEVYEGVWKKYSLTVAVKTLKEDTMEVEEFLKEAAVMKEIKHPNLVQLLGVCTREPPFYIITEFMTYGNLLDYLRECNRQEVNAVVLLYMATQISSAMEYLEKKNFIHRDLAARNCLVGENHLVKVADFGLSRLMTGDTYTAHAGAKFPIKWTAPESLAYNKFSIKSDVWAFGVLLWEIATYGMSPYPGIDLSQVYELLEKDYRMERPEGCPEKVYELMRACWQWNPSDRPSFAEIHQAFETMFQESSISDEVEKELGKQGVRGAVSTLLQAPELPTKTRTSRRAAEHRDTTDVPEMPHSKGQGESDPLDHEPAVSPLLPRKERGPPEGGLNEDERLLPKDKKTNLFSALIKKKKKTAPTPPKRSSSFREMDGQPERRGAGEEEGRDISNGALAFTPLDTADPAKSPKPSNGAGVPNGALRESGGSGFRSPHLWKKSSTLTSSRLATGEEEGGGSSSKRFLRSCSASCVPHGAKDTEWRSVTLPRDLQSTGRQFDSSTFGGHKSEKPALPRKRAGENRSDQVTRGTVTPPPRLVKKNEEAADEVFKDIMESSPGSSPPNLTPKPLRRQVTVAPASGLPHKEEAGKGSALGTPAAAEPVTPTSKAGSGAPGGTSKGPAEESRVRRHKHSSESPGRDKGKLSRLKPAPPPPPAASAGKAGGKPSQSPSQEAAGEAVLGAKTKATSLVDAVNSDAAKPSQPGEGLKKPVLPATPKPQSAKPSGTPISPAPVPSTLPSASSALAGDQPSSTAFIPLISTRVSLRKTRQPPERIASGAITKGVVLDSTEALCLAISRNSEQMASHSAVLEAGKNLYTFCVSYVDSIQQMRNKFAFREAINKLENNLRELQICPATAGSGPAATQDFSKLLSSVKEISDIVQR
- protocol summary: Z'-LYTE SelectScreen biochemical kinase assay ABL1
- condition: read-out: % Inhibition mean ABL1
measurement label: inhibition at 10 µM (%)

>>> df
                                    compound                        tested_system    measurement_label  reading_unit  endpoint_value
 0  CCn1ncc2c1CCC(Nc1nc3c(-c4cncc(OC)c4)cccn3n1)C2 (stereo not drawn)  ABL1 (Homo sapiens, UniProt P00519)  inhibition at 10 µM             %              15
 1  Cc1cc(F)ccc1-c1cccn2nc(Nc3ccc4c(cnn4C)c3)nc12  ABL1 (Homo sapiens, UniProt P00519)  inhibition at 10 µM             %              63
 2  CCn1ncc2c1CCC(Nc1nc3c(-c4cccnc4OC)cccn3n1)C2 (stereo not drawn)  ABL1 (Homo sapiens, UniProt P00519)  inhibition at 10 µM             %              13
 3  CCn1ncc2c1CCC(Nc1nc3c(-c4ccc(F)cc4C)cccn3n1)C2 (stereo not drawn)  ABL1 (Homo sapiens, UniProt P00519)  inhibition at 10 µM             %              19
 4  CCn1ncc2c1C(C)CC(Nc1nc3c(-c4cc(F)c(F)c(F)c4)cccn3n1)C2 (stereo not drawn)  ABL1 (Homo sapiens, UniProt P00519)  inhibition at 10 µM             %              15
 5  Cc1cc(F)ccc1-c1cccn2nc(NC3CCc4c(cnn4C)C3)nc12 (stereo not drawn)  ABL1 (Homo sapiens, UniProt P00519)  inhibition at 10 µM             %               1
 6  Cc1cc(F)ccc1-c1cccn2nc(NC3CCc4c(cnn4C(C)C)C3)nc12 (stereo not drawn)  ABL1 (Homo sapiens, UniProt P00519)  inhibition at 10 µM             %              13
 7  CCn1ncc2c1CCC(Nc1nc3c(-c4cccc(Cl)c4)cccn3n1)C2 (stereo not drawn)  ABL1 (Homo sapiens, UniProt P00519)  inhibition at 10 µM             %              19
 8  CCc1nn(C)c2c1CCC(Nc1nc3c(-c4ccc(F)cc4C)cccn3n1)C2 (stereo not drawn)  ABL1 (Homo sapiens, UniProt P00519)  inhibition at 10 µM             %              12
 9  CCn1ncc2c1CCC(Nc1nc3c(-c4cncc(Cl)c4)cccn3n1)C2 (stereo not drawn)  ABL1 (Homo sapiens, UniProt P00519)  inhibition at 10 µM             %              21
10  CCn1ncc2c1CCC(Nc1nc3c(-c4cnccc4OC)cccn3n1)C2 (stereo not drawn)  ABL1 (Homo sapiens, UniProt P00519)  inhibition at 10 µM             %              28
11  Cc1cc(F)ccc1-c1cccn2nc(NC3CCc4c(cnn4CC(C)C)C3)nc12 (stereo not drawn)  ABL1 (Homo sapiens, UniProt P00519)  inhibition at 10 µM             %              24
12  CCn1ncc2c1CCC(Nc1nc3c(-c4ccccc4C)cccn3n1)C2 (stereo not drawn)  ABL1 (Homo sapiens, UniProt P00519)  inhibition at 10 µM             %              20
13  CCn1ncc2c1CCC(Nc1nc3c(-c4ccc(C)nc4)cccn3n1)C2 (stereo not drawn)  ABL1 (Homo sapiens, UniProt P00519)  inhibition at 10 µM             %              11
14  Cc1cc(F)ccc1-c1cccn2nc(NC3CCc4cnn(C)c4C3)nc12 (stereo not drawn)  ABL1 (Homo sapiens, UniProt P00519)  inhibition at 10 µM             %               9
15  CCn1ncc2c1CC[C@@H](Nc1nc3c(-c4ccc(F)c(Cl)c4)cccn3n1)C2  ABL1 (Homo sapiens, UniProt P00519)  inhibition at 10 µM             %               3
16  CCCCCn1ncc2c1CCC(Nc1nc3c(-c4ccc(F)cc4C)cccn3n1)C2 (stereo not drawn)  ABL1 (Homo sapiens, UniProt P00519)  inhibition at 10 µM             %               3
17  CCn1ncc2c1CCC(Nc1nc3c(-c4ccccc4)cccn3n1)C2 (stereo not drawn)  ABL1 (Homo sapiens, UniProt P00519)  inhibition at 10 µM             %              11
18  CCn1ncc2c1CC[C@@H](Nc1nc3c(-c4ccc(F)cc4C)cccn3n1)C2  ABL1 (Homo sapiens, UniProt P00519)  inhibition at 10 µM             %              14
19  CCn1ncc2c1CC[C@H](Nc1nc3c(-c4ccc(F)c(Cl)c4)cccn3n1)C2  ABL1 (Homo sapiens, UniProt P00519)  inhibition at 10 µM             %              13
20  CCn1nc(Cl)c2c1CCC(Nc1nc3c(-c4ccc(F)cc4C)cccn3n1)C2 (stereo not drawn)  ABL1 (Homo sapiens, UniProt P00519)  inhibition at 10 µM             %              13
21  CCn1ncc2c1CCC(Nc1nc3c(-c4cccnc4)cccn3n1)C2 (stereo not drawn)  ABL1 (Homo sapiens, UniProt P00519)  inhibition at 10 µM             %              15
22  CCCn1ncc2c1CCC(Nc1nc3c(-c4ccc(F)cc4C)cccn3n1)C2 (stereo not drawn)  ABL1 (Homo sapiens, UniProt P00519)  inhibition at 10 µM             %              17
23  CCn1ncc2c1CCC(Nc1nc3c(-c4ccc(OC)nc4)cccn3n1)C2 (stereo not drawn)  ABL1 (Homo sapiens, UniProt P00519)  inhibition at 10 µM             %              24
24  CCn1nnc2c1CCC(Nc1nc3c(-c4ccc(F)cc4C)cccn3n1)C2 (stereo not drawn)  ABL1 (Homo sapiens, UniProt P00519)  inhibition at 10 µM             %               6
25  CCn1ncc2c1CCC(Nc1nc3c(-c4ccc(F)cc4)cccn3n1)C2 (stereo not drawn)  ABL1 (Homo sapiens, UniProt P00519)  inhibition at 10 µM             %              21
26  CCCCn1ncc2c1CCC(Nc1nc3c(-c4ccc(F)cc4C)cccn3n1)C2 (stereo not drawn)  ABL1 (Homo sapiens, UniProt P00519)  inhibition at 10 µM             %              10

* * *

The following compounds are listed with their measured pIC50 values.
- System: Aβ42 production
- protocol summary: Inhibition of Aβ42 production in H4 neuroglioma cells stably expressing human APP695 (MSD electrochemiluminescence)
- Assay type: cell-based
- condition: Homo sapiens; H4 neuroglioma cells, same assay as table 4a; prior art compounds, Table 4b
pIC50: −log10 of the molar value.
measurement label: pIC50

In [3]: df
Out[3]:
                                   compound    tested_system  bound_sign  endpoint_value
0  CC1(C)NC(=O)c2ccc(Nc3nc4c(-c5cccc(F)c5)cccn4n3)cc21 [Cpd. 302 in WO09155551, reference compound]  Aβ42 production           <            5.00
1  CC1(C)C(=O)Nc2ccc(Nc3nc4c(-c5cccc(F)c5)cccn4n3)cc21 [Cpd. 263 in WO09155551, reference compound]  Aβ42 production           =            5.22
2  Fc1cccc(-c2cccn3nc(Nc4ccc5[nH]cnc5c4)nc23)c1 [Cpd. 293 in WO09155551, reference compound]  Aβ42 production           =            5.15

* * *

- tested system: CSF1R (FMS) (Homo sapiens, UniProt P07333)
- Sequence (P07333 20-972): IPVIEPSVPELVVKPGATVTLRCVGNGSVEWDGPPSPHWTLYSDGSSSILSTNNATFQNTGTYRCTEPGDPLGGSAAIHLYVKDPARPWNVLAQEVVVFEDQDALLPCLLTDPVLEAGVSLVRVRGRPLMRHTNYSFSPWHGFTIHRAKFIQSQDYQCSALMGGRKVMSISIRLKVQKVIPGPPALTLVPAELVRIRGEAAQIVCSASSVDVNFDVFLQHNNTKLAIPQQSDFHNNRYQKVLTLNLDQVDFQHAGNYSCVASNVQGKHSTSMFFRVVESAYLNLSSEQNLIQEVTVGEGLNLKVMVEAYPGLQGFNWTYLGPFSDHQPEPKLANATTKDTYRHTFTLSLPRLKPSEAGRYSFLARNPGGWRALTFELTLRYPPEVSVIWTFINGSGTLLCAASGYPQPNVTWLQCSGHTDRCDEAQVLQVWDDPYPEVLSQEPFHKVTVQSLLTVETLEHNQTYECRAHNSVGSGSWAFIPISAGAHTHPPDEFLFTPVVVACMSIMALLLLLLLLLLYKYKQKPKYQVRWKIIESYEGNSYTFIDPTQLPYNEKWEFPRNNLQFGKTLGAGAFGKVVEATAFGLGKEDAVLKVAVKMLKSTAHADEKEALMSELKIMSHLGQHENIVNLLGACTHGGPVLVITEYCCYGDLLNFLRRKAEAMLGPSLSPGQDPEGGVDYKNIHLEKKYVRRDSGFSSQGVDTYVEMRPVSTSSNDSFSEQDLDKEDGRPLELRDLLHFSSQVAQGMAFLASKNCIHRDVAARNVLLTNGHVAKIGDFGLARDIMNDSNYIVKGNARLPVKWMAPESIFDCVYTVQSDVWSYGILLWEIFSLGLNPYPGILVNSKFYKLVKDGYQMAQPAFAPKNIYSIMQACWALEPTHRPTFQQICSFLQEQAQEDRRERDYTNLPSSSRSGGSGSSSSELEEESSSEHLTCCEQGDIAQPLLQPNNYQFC
- protocol summary: Z'-LYTE SelectScreen biochemical kinase assay CSF1R (FMS)
- condition: 10 μmolar compound concentration; ATP at Km app; read-out: CSF1R (FMS) inhibition
measurement label: inhibition at 10 µM

>>> df
                                   compound  endpoint_value
0  CCc1nn(C)c2c1CCC(Nc1nc3c(-c4ccc(F)cc4C)cccn3n1)C2 (stereo not drawn) [Example 54]           < 40%
1  CCn1ncc2c1CCC(Nc1nc3c(-c4cccc(Cl)c4)cccn3n1)C2 (stereo not drawn) [Example 59]       40 to 80%
2  Fc1cccc(-c2cccn3nc(Nc4ccc5[nH]cnc5c4)nc23)c1 [Cpd. 293 in WO09155551, reference compound]           > 80%
3  CCn1ncc2c1CCC(Nc1nc3c(-c4cccnc4)cccn3n1)C2 (stereo not drawn) [Example 63]       40 to 80%
4  CCCn1ncc2c1CCC(Nc1nc3c(-c4ccc(F)cc4C)cccn3n1)C2 (stereo not drawn) [Example 43]           < 40%
5  CCn1ncc2c1CCC(Nc1nc3c(-c4ccc(OC)nc4)cccn3n1)C2 (stereo not drawn) [Example 71]       40 to 80%
